Tested System: ERβ (Homo sapiens, UniProt Q92731)
Sequence (Q92731 whole entry): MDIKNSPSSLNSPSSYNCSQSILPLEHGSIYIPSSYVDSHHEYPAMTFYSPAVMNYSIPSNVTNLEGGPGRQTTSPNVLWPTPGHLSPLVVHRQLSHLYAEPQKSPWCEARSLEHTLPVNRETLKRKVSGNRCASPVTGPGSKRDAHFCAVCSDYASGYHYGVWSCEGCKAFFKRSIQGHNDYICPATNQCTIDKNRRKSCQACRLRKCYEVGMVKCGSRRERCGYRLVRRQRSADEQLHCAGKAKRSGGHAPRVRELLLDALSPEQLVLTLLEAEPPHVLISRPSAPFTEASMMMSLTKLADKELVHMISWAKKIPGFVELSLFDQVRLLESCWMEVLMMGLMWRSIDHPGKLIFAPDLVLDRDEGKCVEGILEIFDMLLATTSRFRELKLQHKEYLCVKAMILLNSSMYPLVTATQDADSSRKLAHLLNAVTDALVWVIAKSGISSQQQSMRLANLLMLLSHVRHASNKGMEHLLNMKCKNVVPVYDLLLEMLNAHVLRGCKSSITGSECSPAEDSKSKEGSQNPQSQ
Procedure Text: Phage ELISA / fingerprint on ER immobilized on biotinylated ERE (Examples 2.3-2.5)
Format: binding
Parameters: purchased PanVera Corporation, Madison, WI; key: semiquantitative scale of 0 to 7+; 1+: semiquantitative scale of 0 to 7+; 2+: semiquantitative scale of 0 to 7+; 3+: semiquantitative scale of 0 to 7+; 4+: semiquantitative scale of 0 to 7+; 5+: semiquantitative scale of 0 to 7+; 6+: semiquantitative scale of 0 to 7+; semiquantitative scale of 0 to 7+
Stated Conditions: ERβ and Estradiol (1 µM)
Measure: binding activity, ERβ and Estradiol

>>> print(df.to_string())
                      residue_sequence                       tested_system  result
0      SSWPGAEWFKEQLSR [Peptide 20b-β]  ERβ (Homo sapiens, UniProt Q92731)      4+
1   SSDTRSRLYELLSSSYTSR [Peptide 5E-β]  ERβ (Homo sapiens, UniProt Q92731)      7+
2  SSYDWQCPSWYCPAPPSSR [Peptide 29E-β]  ERβ (Homo sapiens, UniProt Q92731)      7+
3      SSQVWPGPWRLVESR [Peptide 14b-β]  ERβ (Homo sapiens, UniProt Q92731)      7+

Consider the additional sequence presented here.
Request: Name the recorded binding activity, ERβ and Estradiol for HSWLGPWRLSSIDLGG [Peptide 24b-β] .
Result: 7+
